All figures here come from ChEMBL document CHEMBL1135590.

- Target System: Beta-secretase 1 (Homo sapiens, UniProt P56817)
- Sequence (P56817 whole entry): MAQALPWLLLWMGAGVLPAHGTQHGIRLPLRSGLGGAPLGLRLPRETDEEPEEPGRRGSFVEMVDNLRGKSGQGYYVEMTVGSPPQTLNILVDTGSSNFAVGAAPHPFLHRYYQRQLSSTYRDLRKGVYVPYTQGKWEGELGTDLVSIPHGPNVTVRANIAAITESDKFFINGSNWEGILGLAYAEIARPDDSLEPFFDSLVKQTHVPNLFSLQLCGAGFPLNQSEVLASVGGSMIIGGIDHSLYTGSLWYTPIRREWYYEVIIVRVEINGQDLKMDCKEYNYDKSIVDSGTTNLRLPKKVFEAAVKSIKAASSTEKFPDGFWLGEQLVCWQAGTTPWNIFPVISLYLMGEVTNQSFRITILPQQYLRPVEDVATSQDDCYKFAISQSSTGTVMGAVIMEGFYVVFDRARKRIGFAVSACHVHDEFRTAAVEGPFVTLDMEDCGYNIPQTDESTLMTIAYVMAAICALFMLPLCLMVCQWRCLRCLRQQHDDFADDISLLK
- Protocol Summary: Inhibition of human brain beta-secretase, using MBPC125Swe (maltose-binding-protein C-125 Swedish) assay
- Type: biochemical
Quantity Measured: IC50

Item: H-TNIKTEEISEVNTDAEFR-OH Test system: Beta-secretase 1 (Homo sapiens, UniProt P56817) Read-out: IC50 Value: ?
> 200 µM

Item: H-TNIKTEEISEVNLKAEFR-OH Test system: Beta-secretase 1 (Homo sapiens, UniProt P56817) Read-out: IC50 Value: ?
40 µM

Item: H-TNIKTEEISEVNHDAEFR-OH Test system: Beta-secretase 1 (Homo sapiens, UniProt P56817) Read-out: IC50 Value: ?
> 200 µM

Item: H-TNIKTEEISEVNLGAEFR-OH Test system: Beta-secretase 1 (Homo sapiens, UniProt P56817) Read-out: IC50 Value: ?
119 µM

Item: H-TNIKTEEISEVNFDAEFR-OH Test system: Beta-secretase 1 (Homo sapiens, UniProt P56817) Read-out: IC50 Value: ?
> 200 µM

Item: H-TNIKTEEISEVNLAAEFR-OH Test system: Beta-secretase 1 (Homo sapiens, UniProt P56817) Read-out: IC50 Value: ?
> 200 µM

Item: H-TNIKTEEISEVNGDAEFR-OH Test system: Beta-secretase 1 (Homo sapiens, UniProt P56817) Read-out: IC50 Value: ?
> 200 µM

Item: H-TNIKTEEISEVNRDAEFR-OH Test system: Beta-secretase 1 (Homo sapiens, UniProt P56817) Read-out: IC50 Value: ?
> 200 µM

Item: H-TNIKTEEISEVNLVAEFR-OH Test system: Beta-secretase 1 (Homo sapiens, UniProt P56817) Read-out: IC50 Value: ?
3 µM

Item: H-TNIKTEEISEVNLLAEFR-OH Test system: Beta-secretase 1 (Homo sapiens, UniProt P56817) Read-out: IC50 Value: ?
45 µM

Item: H-TNIKTEEISEVNMDAEFR-OH Test system: Beta-secretase 1 (Homo sapiens, UniProt P56817) Read-out: IC50 Value: ?
> 200 µM

Item: H-TNIKTEEISEVNLDAEFR-OH Test system: Beta-secretase 1 (Homo sapiens, UniProt P56817) Read-out: IC50 Value: ?
> 200 µM

Item: H-TNIKTEEISEVNEDAEFR-OH Test system: Beta-secretase 1 (Homo sapiens, UniProt P56817) Read-out: IC50 Value: ?
> 200 µM

Item: H-TNIKTEEISEVNVDAEFR-OH Test system: Beta-secretase 1 (Homo sapiens, UniProt P56817) Read-out: IC50 Value: ?
> 200 µM

Item: H-TNIKTEEISEVNADAEFR-OH Test system: Beta-secretase 1 (Homo sapiens, UniProt P56817) Read-out: IC50 Value: ?
> 200 µM

Item: H-TNIKTEEISEVNLFAEFR-OH Test system: Beta-secretase 1 (Homo sapiens, UniProt P56817) Read-out: IC50 Value: ?
40 µM

###

- Target System: UniProt P56817
- Protocol Summary: Inhibition of human brain beta-secretase, using MBPC125Swe (maltose-binding-protein C-125 Swedish) assay
- Type: biochemical
pIC50: −log10 of the molar value. Starred links: 1 amine or outer side, 2 acyl side, 3 side chain; linkers in the order of their positions; H or OH if unused. Non-standard residues stand in square brackets, D forms with d. Residues, ends and D or L forms follow the SMILES beside them. ξ: configuration not given here. Sta(3ξ) = CC(C)C[C@H](N[*:1])C(O)CC(=O)[*:2]; X1 = CC(C)CC(N[*:1])C(O)CC(=O)[*:2]
Give measured pIC50 for each item. Keep answers brief.

Name the recorded pIC50 for CC(C)CC(NC(=O)[C@@H](N)CC(N)=O)C(O)CC(=O)N[C@H](C(=O)N[C@@H](C)C(=O)N[C@@H](CCC(=O)O)C(=O)N[C@@H](Cc1ccccc1)C(=O)O)C(C)C (stereo not given in full) (H-N[X1]VAEF-OH) .
< 3.82

Name the recorded pIC50 for CSCC[C@H](NC(=O)[C@@H](NC(C)=O)C(C)C)C(=O)NC(CC(C)C)C(O)CC(=O)N[C@H](C(=O)O)C(C)C (stereo not given in full) .
< 4.00

Name the recorded pIC50 for CSCC[C@H](NC(=O)[C@@H](NC(C)=O)C(C)C)C(=O)NC(CC(C)C)C(O)CC(=O)N[C@H](C(=O)N[C@@H](C)C(=O)O)C(C)C (stereo not given in full) (Ac-VM[X1]VA-OH) .
< 4.00

Name the recorded pIC50 for CSCC[C@H](NC(=O)[C@@H](NC(C)=O)C(C)C)C(=O)N[C@@H](CC(C)C)C(O)CC(=O)N[C@@H](CC(=O)O)C(=O)N[C@@H](C)C(=O)N[C@@H](CCC(=O)O)C(=O)N[C@@H](C)C(=O)O (stereo not given in full) (Ac-VM[Sta(3ξ)]DAEA-OH) .
< 4.00

Name the recorded pIC50 for CSCC[C@H](NC(=O)[C@@H](NC(C)=O)C(C)C)C(=O)NC(CC(C)C)C(O)CC(=O)N1CCC[C@@H]1C(=O)N[C@@H](C)C(=O)N[C@@H](CCC(=O)O)C(=O)N[C@@H](Cc1ccccc1)C(=O)O (stereo not given in full) .
< 3.70
